What protein stability index was measured for each of the following?
B1: FCHSD1 (parent)
chain: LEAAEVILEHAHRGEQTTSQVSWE

Variants of: B1
assaySummary: protein stability index of a GFP-peptide fusion (GPS, HEK-293T) (PSI 1-6); higher = more stable;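 further: lentivirally expressed fusions sorted by FACS into six bins by GFP to DsRed ratio, PSI derived from sequencing read proportions per bin multiplied by bin number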
recordedConditions: c terminus: a fixed tail appended
Numbers only.

Some variants with known protein stability index results, for comparison:
E5S : 4.1
A11Q : 4.11
E15V : 2.6
A3K : 4.57
H10T : 4.65
E9T : 3.62
G14C : 4.2
T18S : 4.41
A4V : 3.15
E15F : 2.31

Please give protein stability index, item by item, for the list that follows.
1. A3V
2. I7N
3. E15H
4. L8Y
5. L8M
6. R13I
7. L8E

Reply text:
1: 2.89; 2: 5.08; 3: 3.87; 4: 4.42; 5: 4.46; 6: 4.11; 7: 5.09

Please give protein stability index, item by item, for the list that follows.
1. A4P
2. L1T
3. A3Y
4. L8G
5. A11E
6. E2R

Reply text:
5.19
5.34
3.6
5.23
4.69
3.84

Inquiry: State its protein stability index for this variant: `G14V`
Reply text: 3.47
